Molecular target: FGFR3 (h) (Homo sapiens)
Sequence (P22607 23-806): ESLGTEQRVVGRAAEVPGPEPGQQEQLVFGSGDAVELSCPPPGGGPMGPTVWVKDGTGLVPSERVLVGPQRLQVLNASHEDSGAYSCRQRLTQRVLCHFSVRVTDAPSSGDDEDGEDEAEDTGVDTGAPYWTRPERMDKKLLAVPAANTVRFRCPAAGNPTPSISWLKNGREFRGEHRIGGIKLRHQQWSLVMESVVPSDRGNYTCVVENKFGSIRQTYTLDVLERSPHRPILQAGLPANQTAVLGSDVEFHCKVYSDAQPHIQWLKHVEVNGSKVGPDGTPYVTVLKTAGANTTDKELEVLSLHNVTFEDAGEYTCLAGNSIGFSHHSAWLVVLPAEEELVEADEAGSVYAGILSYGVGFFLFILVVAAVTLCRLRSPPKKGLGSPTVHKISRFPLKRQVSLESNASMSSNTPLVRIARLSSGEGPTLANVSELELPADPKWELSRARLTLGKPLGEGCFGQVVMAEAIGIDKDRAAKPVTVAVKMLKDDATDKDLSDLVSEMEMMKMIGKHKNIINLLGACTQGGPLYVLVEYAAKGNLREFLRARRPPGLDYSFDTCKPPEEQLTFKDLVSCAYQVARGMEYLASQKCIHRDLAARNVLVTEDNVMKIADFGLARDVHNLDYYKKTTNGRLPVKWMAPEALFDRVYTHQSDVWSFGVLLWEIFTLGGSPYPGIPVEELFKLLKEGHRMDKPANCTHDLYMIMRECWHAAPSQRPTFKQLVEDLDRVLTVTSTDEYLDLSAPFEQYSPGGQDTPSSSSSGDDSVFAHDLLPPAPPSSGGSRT
Assay: FGFR3 (enzymatic assay), TR-FRET
Format: biochemical
Conditions: 25 μM ATP; pIC50 = -log IC50 (M); read-out: FGFR3 pIC50 (converted)
Listed molecules paired with reported IC50
Write the number in M without appending the unit.

record.smiles: COc1cc(OC)c(F)c(N(Cc2ncc[nH]2)c2ccc3ncn(-c4cnn(C)c4)c(=O)c3c2)c1F
endpoint.name: IC50
unit.of.measurement: M
measured.result: 3.16e-09

Please give measured IC50 of the following entry: COc1cc(OC)c(Cl)c(N(CCNC(C)C)c2ccc3ncn(-c4cnn(C)c4)c(=O)c3c2)c1Cl 3.98e-08

Please give measured IC50 of the following entry: COc1cc(OC)c(F)c(N(CCNC(C)C)c2ccc3ncn(-c4cnn(C)c4)c(=O)c3c2)c1 1.58e-08

---

Target: FGFR1 (Homo sapiens)
Construct: purchased DiscoveRx Corporation
Assay: Enzyme binding assay (KINOMEscan) FGFR1
Conditions: FGFR1_pKd, pKd = -log Kd (M)
endpoint.name: Kd (M)
Write the number in M without appending the unit.

molecule: COc1cc(OC)c(F)c(N(Cc2nccn2S(=O)(=O)N(C)C)c2ccc3ncn(-c4ccncc4)c(=O)c3c2)c1 [Compound 41]
Kd (M): 1e-07

Please give measured Kd of the following entry: COc1cc(OC)c(F)c(N(Cc2nccn2S(=O)(=O)N(C)C)c2ccc3ncn(C4CCOCC4)c(=O)c3c2)c1 [Compound 67] 3.16e-07

Please give measured Kd of the following entry: COc1cc(OC)c(F)c(N(Cc2nccn2S(=O)(=O)N(C)C)c2ccc3ncn(-c4cccnc4)c(=O)c3c2)c1F [Compound 35] 5.01e-08

Please give measured Kd of the following entry: COc1cc(OC)c(F)c(N(Cc2nccn2S(=O)(=O)N(C)C)c2ccc3ncn(-c4ccncc4)c(=O)c3c2)c1F [Compound 40] 3.98e-08

---

Listed compounds paired with reported IC50
Molecular target: KDR (h) (Homo sapiens)
Sequence (P35968 20-1356): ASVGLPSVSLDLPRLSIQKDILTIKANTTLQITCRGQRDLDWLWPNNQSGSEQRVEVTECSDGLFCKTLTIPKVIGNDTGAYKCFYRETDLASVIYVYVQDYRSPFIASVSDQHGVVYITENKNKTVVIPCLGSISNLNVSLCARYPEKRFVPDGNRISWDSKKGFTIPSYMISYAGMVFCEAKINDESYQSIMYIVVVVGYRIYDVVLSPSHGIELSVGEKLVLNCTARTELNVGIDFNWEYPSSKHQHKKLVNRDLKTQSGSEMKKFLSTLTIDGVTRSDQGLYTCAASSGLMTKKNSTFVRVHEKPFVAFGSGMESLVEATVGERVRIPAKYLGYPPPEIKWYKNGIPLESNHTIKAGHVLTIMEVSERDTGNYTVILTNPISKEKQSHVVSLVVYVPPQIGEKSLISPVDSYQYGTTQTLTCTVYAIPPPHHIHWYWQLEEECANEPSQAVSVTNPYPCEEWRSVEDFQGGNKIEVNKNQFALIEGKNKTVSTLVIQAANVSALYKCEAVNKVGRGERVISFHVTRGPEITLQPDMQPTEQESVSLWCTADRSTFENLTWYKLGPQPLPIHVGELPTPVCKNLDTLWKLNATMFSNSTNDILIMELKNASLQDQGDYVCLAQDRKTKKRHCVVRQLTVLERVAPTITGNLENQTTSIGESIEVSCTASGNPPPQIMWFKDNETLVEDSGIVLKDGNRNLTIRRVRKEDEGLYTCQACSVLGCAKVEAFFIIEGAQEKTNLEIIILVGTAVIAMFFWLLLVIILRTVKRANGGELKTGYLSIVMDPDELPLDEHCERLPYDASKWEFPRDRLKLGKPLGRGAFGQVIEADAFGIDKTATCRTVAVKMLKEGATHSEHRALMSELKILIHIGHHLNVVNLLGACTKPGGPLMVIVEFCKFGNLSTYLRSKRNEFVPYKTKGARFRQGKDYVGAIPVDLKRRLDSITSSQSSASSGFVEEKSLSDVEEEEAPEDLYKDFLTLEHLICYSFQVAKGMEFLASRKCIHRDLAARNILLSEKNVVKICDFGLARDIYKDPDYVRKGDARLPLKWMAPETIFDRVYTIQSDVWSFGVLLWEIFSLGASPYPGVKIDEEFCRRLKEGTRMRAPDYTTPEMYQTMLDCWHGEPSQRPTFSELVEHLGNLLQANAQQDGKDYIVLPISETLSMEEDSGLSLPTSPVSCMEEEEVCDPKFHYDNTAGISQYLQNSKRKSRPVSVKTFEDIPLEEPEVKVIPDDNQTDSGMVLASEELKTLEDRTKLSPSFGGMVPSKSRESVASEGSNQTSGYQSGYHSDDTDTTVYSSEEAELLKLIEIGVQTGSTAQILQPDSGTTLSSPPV
Test: KDR (VEGFR2) (enzymatic assay), TR-FRET
Format: biochemical
Conditions: 3 μM ATP; pIC50 = -log IC50 (M); read-out: VEGFR KDR pIC50 (converted)

compound: COc1cc(OC)c(F)c(N(CCO)c2ccc3ncn(-c4ccccc4)c(=O)c3c2)c1 [Compound 6]
IC50: > 1e-06 M
--
compound: COc1cc(OC)cc(C(=O)c2ccc3ncn(-c4cnn(C)c4)c(=O)c3c2)c1 [Compound 24]
IC50: > 1e-06 M

Now for another entry.
Please give measured IC50 of the following entry: COc1cccc(C(=O)c2ccc3ncn(-c4cnn(C)c4)c(=O)c3c2)c1 [Compound 23] > 1e-06 M

---

Target: FGFR4 (Homo sapiens, UniProt P22455)
Construct: purchased DiscoveRx Corporation
Sequence (P22455 22-802): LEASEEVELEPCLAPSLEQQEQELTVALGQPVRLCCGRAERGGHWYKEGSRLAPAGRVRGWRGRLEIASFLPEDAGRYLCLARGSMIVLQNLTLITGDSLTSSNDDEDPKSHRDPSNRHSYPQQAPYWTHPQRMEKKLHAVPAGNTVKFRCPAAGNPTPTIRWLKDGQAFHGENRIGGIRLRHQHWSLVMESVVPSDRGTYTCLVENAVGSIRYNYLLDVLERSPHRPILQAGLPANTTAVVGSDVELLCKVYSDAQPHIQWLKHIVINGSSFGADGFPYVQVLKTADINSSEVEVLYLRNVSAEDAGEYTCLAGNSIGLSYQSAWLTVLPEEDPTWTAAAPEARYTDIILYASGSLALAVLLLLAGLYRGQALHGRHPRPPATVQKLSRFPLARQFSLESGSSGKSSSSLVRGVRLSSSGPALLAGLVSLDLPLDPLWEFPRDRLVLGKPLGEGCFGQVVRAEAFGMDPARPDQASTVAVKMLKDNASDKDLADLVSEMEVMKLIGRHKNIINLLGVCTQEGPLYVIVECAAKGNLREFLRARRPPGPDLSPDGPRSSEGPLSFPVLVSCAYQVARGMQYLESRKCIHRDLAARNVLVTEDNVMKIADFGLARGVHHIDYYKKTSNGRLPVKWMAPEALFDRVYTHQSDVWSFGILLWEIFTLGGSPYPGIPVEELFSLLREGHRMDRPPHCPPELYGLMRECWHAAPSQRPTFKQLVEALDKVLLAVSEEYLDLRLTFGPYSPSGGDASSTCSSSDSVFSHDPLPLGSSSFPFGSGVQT
Experiment: Enzyme binding assay (KINOMEscan) FGFR4
Details: pKd = -log Kd (M), read-out: FGFR4_pKd (converted)
endpoint.name: Kd

Would you please look over these solved cases?
record.smiles: COc1cc(OC)cc(N(CCO)c2ccc3ncn(C4CCOCC4)c(=O)c3c2)c1
measured.result: > 3.16e-06 M
//
record.smiles: COc1cc(OC)cc(N(CCCO)c2ccc3ncn(C4CCOCC4)c(=O)c3c2)c1
measured.result: > 3.16e-06 M

Now for another entry.
Please give measured Kd of the following entry: COc1cc(OC)cc(/C(=C\C#N)c2ccc3ncn(-c4cnn(C)c4)c(=O)c3c2)c1 > 3.16e-06 M

---

Listed compounds paired with reported Kd
Target: FGFR4 (Homo sapiens, UniProt P22455)
Construct: purchased DiscoveRx Corporation
Test: Enzyme binding assay (KINOMEscan) FGFR4
Conditions: pKd = -log Kd (M), read-out: FGFR4_pKd (converted)

Would you please look over these solved cases?
record.smiles: CNCCN(c1cc(OC)cc(OC)c1)c1ccc2ncn(C3CCNCC3)c(=O)c2c1
target.or.system: FGFR4 (Homo sapiens, UniProt P22455)
endpoint.name: Kd
measured.result: > 3.16e-06 M

record.smiles: COc1cc(OC)cc(N(CCO)c2ccc3ncn(-c4cccnc4)c(=O)c3c2)c1
target.or.system: FGFR4 (Homo sapiens, UniProt P22455)
endpoint.name: Kd
measured.result: > 3.16e-06 M

# assay system FGFR4 (Homo sapiens, UniProt P22455): give Kd of COc1cc(OC)cc(N(CCO)c2ccc3ncn(-c4ccccc4)c(=O)c3c2)c1 > 1e-06 M

---

Listed molecules paired with reported Kd
Target: FGFR1 (Homo sapiens, UniProt P11362)
Construct: purchased DiscoveRx Corporation
Sequence (P11362 22-822): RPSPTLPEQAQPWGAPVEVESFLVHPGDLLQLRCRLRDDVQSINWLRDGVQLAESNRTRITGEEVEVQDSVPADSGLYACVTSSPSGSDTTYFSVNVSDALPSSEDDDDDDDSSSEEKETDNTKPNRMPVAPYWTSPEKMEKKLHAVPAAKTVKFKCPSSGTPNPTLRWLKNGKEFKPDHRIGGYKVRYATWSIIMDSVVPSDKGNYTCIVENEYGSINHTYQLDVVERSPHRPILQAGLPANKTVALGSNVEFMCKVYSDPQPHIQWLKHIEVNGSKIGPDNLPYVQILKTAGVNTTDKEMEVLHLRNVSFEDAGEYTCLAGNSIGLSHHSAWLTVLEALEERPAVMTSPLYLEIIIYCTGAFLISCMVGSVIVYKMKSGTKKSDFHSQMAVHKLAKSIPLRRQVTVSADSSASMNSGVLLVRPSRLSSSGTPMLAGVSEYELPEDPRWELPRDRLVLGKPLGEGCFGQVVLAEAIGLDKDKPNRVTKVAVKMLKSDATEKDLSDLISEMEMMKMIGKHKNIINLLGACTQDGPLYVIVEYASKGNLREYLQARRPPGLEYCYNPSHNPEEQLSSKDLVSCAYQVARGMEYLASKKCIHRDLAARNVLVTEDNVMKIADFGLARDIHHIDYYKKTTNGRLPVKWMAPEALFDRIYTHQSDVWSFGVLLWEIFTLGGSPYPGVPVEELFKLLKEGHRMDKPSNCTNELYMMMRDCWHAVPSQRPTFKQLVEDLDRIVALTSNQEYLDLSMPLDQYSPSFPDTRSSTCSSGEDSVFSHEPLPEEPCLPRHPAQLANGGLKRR
Assay: Enzyme binding assay (KINOMEscan) FGFR1
Conditions: FGFR1_pKd, pKd = -log Kd (M)
Procedure: Enzyme Binding Assays (KINOMEscan®) Kinase enzyme binding affinities of compounds disclosed herein were determined using the KINOMEscan® technology performed by DiscoveRx Corporation, San Diego, Calif., USA (www.kinomescan.com).

Would you please look over these solved cases?
molecule: COc1cc(OC)cc(N(CCCO)c2ccc3ncn(C4CCNCC4)c(=O)c3c2)c1 [Compound 55]
Kd: > 3.16e-06 M

molecule: COc1cc(OC)cc(N(CCO)c2ccc3ncn(C4CCNCC4)c(=O)c3c2)c1 [Compound 47]
Kd: > 3.16e-06 M

Now for another entry.
Please give measured Kd of the following entry: COc1cc(OC)cc(N(CCO)c2ccc3ncn(-c4ccccc4)c(=O)c3c2)c1 [Compound 7] > 1e-06 M

---

Target: VEGFR2 (Homo sapiens)
Construct: purchased DiscoveRx Corporation
Sequence (P35968 20-1356): as the sequence (P35968 20-1356) above
Assay: Enzyme binding assay (KINOMEscan) VEGFR2
Details: pKd = -log Kd (M), read-out: VEGFR2_pKd (converted)
endpoint.name: Kd

record.smiles: COc1cc(OC)c(F)c(N(CCO)c2ccc3ncn(-c4cccnc4)c(=O)c3c2)c1
target.or.system: VEGFR2 (Homo sapiens)
Kd: > 3.16e-06 M
--
record.smiles: COc1cc(OC)cc(N(CCNC(C)C)c2ccc3ncn(-c4cccnc4)c(=O)c3c2)c1
target.or.system: VEGFR2 (Homo sapiens)
Kd: > 3.16e-06 M
--
record.smiles: COc1cc(OC)cc(N(CCO)c2ccc3ncn(-c4cccnc4)c(=O)c3c2)c1
target.or.system: VEGFR2 (Homo sapiens)
Kd: > 3.16e-06 M
--
record.smiles: COc1cc(OC)cc(/C(=C\C#N)c2ccc3ncn(-c4cnn(C)c4)c(=O)c3c2)c1
target.or.system: VEGFR2 (Homo sapiens)
Kd: > 3.16e-06 M
--
record.smiles: COc1cc(OC)cc(N(CCO)c2ccc3ncn(-c4ccccc4)c(=O)c3c2)c1
target.or.system: VEGFR2 (Homo sapiens)
Kd: > 1e-06 M

Please give measured Kd of the following entry: COc1cc(OC)c(F)c(N(CCO)c2ccc3ncn(-c4cncnc4)c(=O)c3c2)c1F > 3.16e-06 M

---

Target: VEGFR2 (Homo sapiens)
Construct: purchased DiscoveRx Corporation
Assay: Enzyme binding assay (KINOMEscan) VEGFR2
Details: pKd = -log Kd (M), read-out: VEGFR2_pKd (converted)
Listed molecules paired with reported Kd

Would you please look over these solved cases?
molecule: COc1cc(OC)c(F)c(N(Cc2nccn2S(=O)(=O)N(C)C)c2ccc3ncn(-c4cccnc4)c(=O)c3c2)c1 [Compound 36]
Kd: > 3.16e-06 M
--
molecule: COc1cc(OC)c(F)c(N(CCCNC(C)C)c2ccc3ncn(C4CCOCC4)c(=O)c3c2)c1 [Compound 72]
Kd: 2.51e-06 M
--
molecule: COc1cc(OC)c(F)c(N(Cc2nccn2S(=O)(=O)N(C)C)c2ccc3ncn(-c4cccnc4)c(=O)c3c2)c1F [Compound 35]
Kd: 1.26e-06 M
--
molecule: COc1cc(OC)c(F)c(N(CCO)c2ccc3ncn(-c4ccncc4)c(=O)c3c2)c1 [Compound 38]
Kd: > 3.16e-06 M
--
molecule: CNCCN(c1ccc2ncn(C3CCNCC3)c(=O)c2c1)c1c(F)c(OC)cc(OC)c1F [Compound 57]
Kd: 2e-06 M
--
molecule: CNCCN(c1cc(OC)cc(OC)c1)c1ccc2ncn(C3CCNCC3)c(=O)c2c1 [Compound 59]
Kd: > 3.16e-06 M

Please give measured Kd of the following entry: COc1cc(OC)c(F)c(N(Cc2nccn2S(=O)(=O)N(C)C)c2ccc3ncn(C4CCOCC4)c(=O)c3c2)c1 [Compound 67] > 3.16e-06 M

Please give measured Kd of the following entry: COc1cc(OC)cc(N(CCCNC(C)C)c2ccc3ncn(C4CCOCC4)c(=O)c3c2)c1 [Compound 73] > 3.16e-06 M
